Catalogue of composite z-score values
assay: small-molecule microarray binders of probe aCHRDL2, primary screen, biochemical, biotinylated probe, 635/667 nm fluorescence (AID 1100); conditions: higher = more signal

molecule: C[C@@]1([C@@H](NS(=O)(=O)c2cccc3cccnc23)c2ccc(-c3ccccc3)cc2)C[C@H]1C1CCCCC1
composite z-score: 1.19
--
molecule: C=C(CCCC)C(=O)CC[C@@H](OC(C)=O)c1ccc(OCCO)cc1
composite z-score: -0.169
--
molecule: C=C(C(=O)CC[C@@H](OC(=O)c1ccccc1-c1ccccc1C(=O)O)c1cccc(OCCO)c1)C(C)C
composite z-score: -0.393
--
molecule: CCCCN1CC=CC23O[C@@H]4/C=C\CCC(C)OC(=O)C4[C@H]2C(=O)N(CCO)[C@@H]3C1=O (stereo partly drawn)
composite z-score: 0.64
--
molecule: CCCC[C@@H](O)C1=C(C)Cn2c(=O)n(-c3ccccc3)c(=O)n2[C@H]1CO
composite z-score: -0.487
--
molecule: Cc1ccc(S[C@]2(C(=O)NCC(C)C)CC(=O)N(C(C)C)[C@@H]2c2ccc(CO)cc2I)cc1
composite z-score: 1.28
--
molecule: CC(CO)N1C(=O)[C@@H]2[C@H]3C(=O)OCC=C[C@H]3OC23C=CCN(c2ccc4ccccc4c2)C(=O)[C@@H]13 (stereo partly drawn)
composite z-score: 0.725
--
molecule: CO[C@H]1O[C@H](CO)[C@@H](OC(=O)Nc2cccc(F)c2)[C@H](OC(=O)Nc2ccc3c(c2)OCO3)[C@@H]1OC(=O)Nc1ccc2c(c1)OCO2
composite z-score: 0.558

###

molecular target: NADPH oxidase 2 (Homo sapiens) (UniProt P04839); assay: NOX2-dependent H2O2 signal modulators, primary screen, NOX inhibitor project, cell-based, HEK293-NOX2, PMA-stimulated, Amplex Red fluorescence (AID 1159); conditions: 45 min, higher = more signal, called active from +8 up or from −8 down; further: test concentration not given here
Sequence (P04839 whole entry, looked up): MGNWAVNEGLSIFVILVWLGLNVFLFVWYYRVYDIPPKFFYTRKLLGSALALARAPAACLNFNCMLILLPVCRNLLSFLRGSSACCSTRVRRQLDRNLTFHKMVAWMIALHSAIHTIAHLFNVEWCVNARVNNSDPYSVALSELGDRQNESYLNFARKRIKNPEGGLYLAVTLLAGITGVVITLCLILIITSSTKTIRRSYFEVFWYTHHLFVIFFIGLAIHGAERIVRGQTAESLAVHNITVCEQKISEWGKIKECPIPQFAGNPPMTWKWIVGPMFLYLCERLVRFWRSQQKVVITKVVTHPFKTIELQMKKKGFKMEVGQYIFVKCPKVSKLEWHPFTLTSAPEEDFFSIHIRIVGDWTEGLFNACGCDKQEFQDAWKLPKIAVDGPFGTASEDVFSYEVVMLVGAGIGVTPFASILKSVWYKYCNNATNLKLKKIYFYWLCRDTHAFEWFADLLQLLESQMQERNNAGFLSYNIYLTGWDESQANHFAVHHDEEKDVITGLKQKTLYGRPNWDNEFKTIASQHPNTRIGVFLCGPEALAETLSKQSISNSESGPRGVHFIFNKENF
Catalogue of z-score values

test smiles: COC(=O)[C@]1(Cc2ccccc2CN=[N+]=[N-])N=C(c2ccc(OCCCO)cc2)O[C@@H]1c1ccccc1N=[N+]=[N-]
z-score: -0.938

test smiles: C=C(COC)C(=O)CC[C@@H](OC(=O)c1ccccc1-c1ccccc1C(=O)O)c1ccccc1OCCO
z-score: 0.26

test smiles: Cc1ccc(S[C@]2(C(=O)NC3CC3)CC(=O)N(C3Cc4ccccc4C3)[C@@H]2c2ccc(CO)cc2I)cc1
z-score: 1.94

test smiles: CC(C)(C)OC(=O)CC[C@]1(C(=O)N2CCOCC2)COC(c2ccc(OCCCO)cc2)=N1
z-score: -1.16

test smiles: COCCOC(=O)N1C(=O)[C@@]2(c3cc(C#CCCO)ccc31)[C@H](c1ccc(O)cc1)N1[C@H](c3ccccc3)[C@H](c3ccccc3)OC(=O)[C@H]1[C@@H]2C(=O)NC[C@H](O)c1ccccc1
z-score: 0.878

test smiles: COC(=O)[C@@]1(Cc2ccc(F)cc2)[C@H]2c3cc(C(=O)N(C)C)n(Cc4ccc(C(F)(F)F)nc4)c3C[C@H]2CN1C(=O)c1ccccc1
z-score: 0.267

###

assay: basal S. cerevisiae growth modulation, no modifier, primary screen, OD600, strain BY4716, 24 h, basal condition (AID 1173); details: OD600, 24 h, higher = more signal, called active from +8 up or from −8 down

molecule: CC1CC/C=C\[C@H]2OC34C=CCN(CCN5CCOCC5)C(=O)[C@H]3N(C(CO)C(C)C)C(=O)[C@@H]4C2C(=O)O1 (stereo partly drawn)
z-score: 0.183
//
molecule: O=C1N(Cc2ccccc2)c2ccccc2C[C@@]12N=C(c1ccc(OCCCO)cc1)O[C@H]2c1ccccc1
z-score: -1.21
//
molecule: CN1C(=O)C2C=CC(C(O)COCc3ccccc3)N(Nc3ccc([N+](=O)[O-])cc3[N+](=O)[O-])C2C1=O (stereo not drawn)
z-score: -2.33
//
molecule: C=CCNC(=O)[C@H]1[C@@H]2C(=O)O[C@@H](c3ccccc3)[C@@H](c3ccccc3)N2[C@@H](c2ccc(O)cc2)[C@]12C(=O)Nc1ccc(C#CCC(C(=O)OC)C(=O)OC)cc12
z-score: 0.24
//
molecule: CC[C@@H]1C=C(C(=O)O)[C@H](c2cccc(Cl)c2)N1S(=O)(=O)c1ccc(C)cc1
z-score: -0.423
//
molecule: O=C1NC(=O)C2C1C=CC(C(O)C(O)CO)N2Nc1ccccn1 (stereo not drawn)
z-score: 0.802
//
molecule: CCOC(=O)C[C@H]1[C@H](OC(=O)c2ccc(-c3ccccc3)cc2)[C@@H](NC(=O)c2ccc(-c3ccccc3)cc2)c2cc(OCCCO)ccc2N1C(=O)c1ccccc1
z-score: 1.36
//
molecule: NCCCCCCNC(=O)[C@@H]1C[C@@H]2C(=O)NCC(=O)N2[C@@H]1c1cccc(OCCO)c1
z-score: -0.277
//
molecule: C=CC[C@@]1(C(=O)NCCCOC)N=C(c2ccc(OCCCO)cc2)O[C@@H]1c1ccccc1CN=[N+]=[N-]
z-score: -0.574
//
molecule: COc1ccc(CCNC(=O)[C@@H]2c3ccccc3C(=O)N(C(C)C)[C@H]2c2ccc(CO)cc2)cc1
z-score: -0.313
//
molecule: COCCOC(=O)N1C(=O)[C@@]2(c3cc(C#CCNC(N)=O)ccc31)[C@H](c1ccccc1OCCO)N1[C@H](c3ccccc3)[C@H](c3ccccc3)OC(=O)[C@H]1[C@@H]2C(=O)N1CCCCCCC1
z-score: 1
//
molecule: C=CCC(OC(C)=O)[C@@H]1[C@@H](N(Cc2ccc(-c3ccccc3)cc2)C(=O)Cc2ccc(OC)cc2)c2cc(OCCCO)ccc2N1C(=O)c1ccc2ccccc2c1 (stereo partly drawn)
z-score: -0.562
//
molecule: COc1ccc(C(O)C2C=CC3C(=O)N(C)C(=O)C3N2Nc2ccccc2)cc1 (stereo not drawn)
z-score: -3.09

###

Catalogue of z-score values
biological target: NADPH oxidase 5 (Homo sapiens); assay: NOX5-dependent H2O2 signal modulators, primary screen, NOX inhibitor project, cell-based, HEK293-NOX5, Amplex Red fluorescence (AID 1161); settings: HEK293-NOX5, ionomycin, 45 min, higher = more signal

compound: CC(C)c1ccc(NN2C(C(O)C3CCCCC3)C=CC3C(=O)N(c4ccccc4)C(=O)C32)cc1 (configuration not stated)
z-score: -2.44

compound: COCCOC(=O)N1C(=O)[C@@]2(c3cc(C#CCC(C(=O)OC)C(=O)OC)ccc31)[C@H](C(N)=O)[C@H]1C(=O)O[C@H](c3ccccc3)[C@H](c3ccccc3)N1[C@@H]2c1ccccc1OCCO
z-score: -1.13

compound: Cc1ccc(S[C@]2(C(=O)NCC(C)C)CC(=O)N(C(C)C)[C@@H]2c2ccc(CO)cc2I)cc1
z-score: 1.9

compound: O=C1O[C@@H](c2ccccc2)[C@@H](c2ccccc2)N2[C@@H](c3ccccc3OCCO)[C@]3(C(=O)Nc4ccc(C#CC5(O)CCCCCC5)cc43)[C@@H](C(=O)N3CCCCCCC3)[C@H]12
z-score: 0.147

compound: CC(C)[Si]1(C(C)C)OCc2cc(-c3ccc(-c4ccc(Cl)c(Cl)c4)o3)nc(-c3ccc(Oc4ccccc4)cc3)c21
z-score: -1.54

compound: CC(C)N1CC=CC23O[C@@H]4/C=C\CCCOC(=O)C4[C@H]2C(=O)N(C(C)CO)[C@@H]3C1=O (some centres not stated)
z-score: 0.883

compound: COc1cccc(C)c1NC(=O)O[C@H]1[C@H](OC(=O)Nc2ccccc2)[C@@H](OC(=O)Nc2ccccc2)[C@@H](OC)O[C@@H]1CO
z-score: -2.29

###

Catalogue of composite z-score values
biological target: Albumin (Bos taurus); assay: bovine serum albumin binders on microarray, profiling panel, artefact control for SMM control protein annotation, biochemical, small-molecule microarray, Alexa647 label, 635/667 nm fluorescence (AID 1118); conditions: BSA-A647 binding, fluorescence 635 nm, higher = more signal;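 further: score merges 667 nm emission intensity and signal-to-noise per printed compound spot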

molecule: C=C(C(=O)CC[C@@H](OC(=O)c1ccccc1-c1ccccc1C(=O)O)c1ccc(CO)o1)C(C)C
composite z-score: -0.41

molecule: C=C(COC)C(=O)CC[C@H](OC(C)=O)c1ccccc1OCCO
composite z-score: -1.63

molecule: O=C(NCC(F)(F)F)[C@@H]1c2ccccc2C(=O)N(Cc2cc(C(F)(F)F)cc(C(F)(F)F)c2)[C@H]1c1ccc(CO)cc1
composite z-score: 0.195

molecule: COC(=O)Cn1c(C(=O)N(C)C)cc2c1C[C@H]1CN(C(=O)c3ccccc3)[C@@](Cc3ccccc3)(C(=O)OC)[C@@H]21
composite z-score: 0.759

molecule: C[C@@]1([C@@H](NS(=O)(=O)c2cccc3cccnc23)c2ccc(-c3ccccc3)cc2)C[C@H]1C1CCCCC1
composite z-score: 0.533

molecule: O=C1OCCC/C=C\[C@H]2OC34C=CCN(Cc5ccccc5)C(=O)[C@H]3N(CCO)C(=O)[C@@H]4C12 (stereo partly specified)
composite z-score: -0.78

molecule: CCOC(=O)C[C@H]1[C@H](OC(=O)c2cc3ccccc3oc2=O)[C@@H](NC(=O)c2ccc(-c3ccccc3)cc2)c2cc(OCCCO)ccc2N1C(=O)Cc1ccc(OC)cc1
composite z-score: 0.0146

molecule: COc1ccc([Si](C)(C)[C@H]2[C@H](CC(=O)N3CCC[C@H]3CO)O[C@@]3(C(=O)N(C)c4c(Br)cc(C)cc43)[C@@H]2C)cc1
composite z-score: 0.824

molecule: CC(C)(C)OC(=O)CC[C@]1(C(=O)N2CCOCC2)COC(c2ccc(OCCCO)cc2)=N1
composite z-score: 0.947

molecule: C=C[C@H](OC)[C@@H](O)c1ccc(OC)c(O)c1
composite z-score: 0.985

molecule: COc1ccc(CCNC(=O)[C@@]2(C)c3ccccc3C(=O)N(Cc3ccc(OC(F)(F)F)cc3)[C@H]2c2ccc(CO)cc2)cc1
composite z-score: -0.146
